- tgt: T1, 4H2512-AA
- T1 chain: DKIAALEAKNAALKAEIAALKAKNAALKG
- procedure.details: two-hybrid library CCmax;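 also: natural log of median RNA to DNA barcode read ratio; higher means stronger binding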
- run.conditions: mean of both orientations
API: label(entry) gives T if the entry's interaction score is strictly smaller than -1; on equality or larger values it gives F.

                                     binder  label_value
0  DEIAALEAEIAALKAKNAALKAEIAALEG [4H121-AA]            T
1  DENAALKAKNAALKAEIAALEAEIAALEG [4H1985-AA]            T
2  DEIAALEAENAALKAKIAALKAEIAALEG [4H233-AA]            F
3  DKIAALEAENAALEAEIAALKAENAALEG [4H2187-AA]            F
4  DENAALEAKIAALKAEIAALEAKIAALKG [4H1350-AA]            F
5  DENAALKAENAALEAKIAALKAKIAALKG [4H1710-AA]            F
6  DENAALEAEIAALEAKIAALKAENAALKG [4H1068-AA]            T
